SYSTEM: human alpha2A receptors (Homo sapiens, UniProt P08913)
Sequence (P08913 1-465): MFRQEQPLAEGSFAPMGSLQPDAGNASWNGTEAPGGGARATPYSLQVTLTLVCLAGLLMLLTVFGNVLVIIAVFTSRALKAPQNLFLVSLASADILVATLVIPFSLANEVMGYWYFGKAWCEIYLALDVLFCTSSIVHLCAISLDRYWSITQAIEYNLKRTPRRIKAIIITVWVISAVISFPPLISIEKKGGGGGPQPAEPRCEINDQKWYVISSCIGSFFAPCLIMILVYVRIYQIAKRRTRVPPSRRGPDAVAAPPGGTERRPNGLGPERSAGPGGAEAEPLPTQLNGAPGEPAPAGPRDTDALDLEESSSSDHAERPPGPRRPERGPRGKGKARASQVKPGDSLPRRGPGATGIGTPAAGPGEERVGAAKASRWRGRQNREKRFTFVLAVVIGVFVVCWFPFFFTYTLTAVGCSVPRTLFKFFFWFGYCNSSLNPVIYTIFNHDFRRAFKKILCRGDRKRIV
PROCEDURE SUMMARY: Determination of alpha2A antagonistic activity in vitro (intracellular calcium, FLIPR Calcium 3 Assay, FLEXstation)
MEASUREMENT PARAMETERS: CHO cells stably transfected with human alpha2A receptor and Gα16; stimulated with 100 nM adrenaline or 200 nM noradrenaline
I'd be grateful if you could share measured log10 IC50 for these entries.
In plain terms, each number is the log10 of measured IC50 in nM.

Please state, for each entry, its recorded log10 IC50.
1. c1ccc(C2CCCN(CC3COc4ccccc4O3)C2)cc1 (centres unmarked) [Example 2]
2. C=CCC1(CO)CCCN(CC2COc3ccccc3O2)C1 (centres unmarked) [Example 71]
3. C[C@]1(COCCO)CCCN(C[C@H]2COc3ccccc3O2)C1 [Example 89, D-tartrate]

Return:
[3.58, 3.06, 3.33]

Please state, for each entry, its recorded log10 IC50.
1. COC(C)(C)C1(C)CCCN(CC2COc3ccccc3O2)C1 (centres unmarked) [Example 58]
2. C=CCOCC1(C)CCCN(CC2COc3ccccc3O2)C1 (centres unmarked) [Example 69]
3. CCC1(COC)CCCN(CC2COc3ccccc3O2)C1 (centres unmarked) [Example 63]
4. Oc1ccccc1C1CCCN(CC2COc3ccccc3O2)C1 (centres unmarked) [Example 12]

Return:
[2.89, 3.11, 3.44, 2.57]
